These entries and their values trace back to the supplement of paper PMC12494721.

System: Escherichia coli IAI1
Assay: growth (OD595) fold change vs plate DMSO controls (fold change (ratio)); higher = more growth
Conditions: incubation time: 27 h, anaerobic, 37 °C
Structures can show the parent of a compound that is named as a salt.
Entries annotated with measured growth

>  <MOLECULE>
Nc1ccc(C(=O)NCC(=O)O)cc1 [Aminohippuric acid] (20 µM)

>  <growth>
0.163

$$$$
>  <MOLECULE>
CC(C)CN(C[C@@H](O)[C@H](Cc1ccccc1)NC(=O)O[C@H]1CCOC1)S(=O)(=O)c1ccc(N)cc1 [Amprenavir] (20 µM)

>  <growth>
1.05

$$$$
>  <MOLECULE>
Clc1ccc(CO/N=C(\Cn2ccnc2)c2ccc(Cl)cc2Cl)c(Cl)c1 [Oxiconazole nitrate] (20 µM)

>  <growth>
0.995

$$$$
>  <MOLECULE>
Nc1nnc(-c2cccc(Cl)c2Cl)c(N)n1 [Lamotrigine] (20 µM)

>  <growth>
0.978

$$$$
>  <MOLECULE>
CC[C@H](C)[C@H](N)C1=N[C@H](C(=O)N[C@@H](CC(C)C)C(=O)N[C@H](CCC(=O)O)C(=O)N[C@H](C(=O)N[C@H]2CCCCNC(=O)[C@H](CC(N)=O)NC(=O)[C@@H](CC(=O)O)NC(=O)[C@H](Cc3cnc[nH]3)NC(=O)[C@@H](Cc3ccccc3)NC(=O)[C@H]([C@@H](C)CC)NC(=O)[C@@H](CCCN)NC2=O)[C@@H](C)CC)CS1 [Bacitracin] (20 µM)

>  <growth>
1.05

$$$$
>  <MOLECULE>
CN(C)CCCN1c2ccccc2CCc2ccc(Cl)cc21 [Clomipramine hydrochloride] (20 µM)

>  <growth>
0.978

$$$$
>  <MOLECULE>
Cc1cccc(CN2CCN(C(c3ccccc3)c3ccc(Cl)cc3)CC2)c1 (stereo unspecified) [Meclozine dihydrochloride] (20 µM)

>  <growth>
0.963

$$$$
>  <MOLECULE>
O=C(O)c1ccccc1OP(=O)(O)O [Fosfosal] (20 µM)

>  <growth>
1.01

$$$$
>  <MOLECULE>
CO[C@H]1C[C@H](O[C@H]2[C@H](C)[C@@H](O[C@@H]3O[C@H](C)C[C@H](N(C)C)[C@H]3OC(C)=O)[C@@H](C)C[C@@]3(CO3)C(=O)[C@H](C)[C@@H](OC(C)=O)[C@@H](C)[C@@H](C)OC(=O)[C@@H]2C)O[C@@H](C)[C@@H]1OC(C)=O [Troleandomycin] (20 µM)

>  <growth>
0.966

$$$$
>  <MOLECULE>
Cn1c(=O)c2c(ncn2CC(O)CO)n(C)c1=O (stereo unspecified) [Diprophylline] (20 µM)

>  <growth>
1.02

$$$$
>  <MOLECULE>
OCCN1CCN(CC/C=C2/c3ccccc3Sc3ccc(Cl)cc32)CC1 [Zuclopenthixol dihydrochloride] (20 µM)

>  <growth>
1.25

$$$$
>  <MOLECULE>
N=C(N)NC(=N)NCCc1ccccc1 [Phenformin hydrochloride] (20 µM)

>  <growth>
1.01

$$$$
>  <MOLECULE>
O=P(O)(O)C(O)(Cc1cccnc1)P(=O)(O)O [Risedronic acid monohydrate] (20 µM)

>  <growth>
1.12

$$$$
>  <MOLECULE>
Cc1cccc(N(C)C(=S)Oc2ccc3ccccc3c2)c1 [Tolnaftate] (20 µM)

>  <growth>
0.997

$$$$
>  <MOLECULE>
CCCCC1C(=O)N(c2ccccc2)N(c2ccc(O)cc2)C1=O (stereo unspecified) [Oxyphenbutazone] (20 µM)

>  <growth>
1

$$$$
>  <MOLECULE>
CN1CCCN=C1/C=C/c1cccc(O)c1 [Oxantel pamoate] (20 µM)

>  <growth>
1.04

$$$$
